- study.target: T1, HER2 extracellular domain (HER2-ECD) (human, UniProt P04626 23-652)
- T1 construct: extracellular domain; also called immobilized HER2; extracellular domain of Erb2
- protocol.description: competition ELISA, block of 1.1.FI-Zb binding to immobilized HER2-ECD
Bridges are numbered along the chain shown (N, C = ends). Where no end group is shown, it is not given here.
result.type: IC50 (nM)
Value expressed in nM; do not type the unit.

[
  {
    "binder": "YSFEGWGCIGPGCAYLFEGH (disulfide 8-13 (inferred), also called synthetic peptide of phage-clone 1.1.2) [Peptide HER201]",
    "units.label": "nM",
    "observed.measurement": 300
  },
  {
    "binder": "QVYESWGCIGPGCACLQACLGGGSGGQVYESWGCIGPGCACLQACL-{Z domain of protein A} (other, not fully specified; cysteine pairing not given here; also: fused to Z domain of protein A (not in chain), also called single chain dimer; 1.1FI repeated twice and fused to the Z domain of protein A) [(1.1FI)2-Z]",
    "units.label": "nM",
    "observed.measurement": 20
  }
]

We next turn to a different binder, shown below.
If you can, please state the reported IC50 value of QVYESWGCIGPGCACLQACL (disulfide 8-13, 15-19, Present only as monomer by mass spectrometry; also called synthetic peptide of clone 1.1.FI) [Peptide HER212] .
9000
